target: HIV-1 Env of isolate MGRM-D-001 (subtype D) (HIV-1); test: cell-based or functional assay
Parameter: IC50 (neutralization)

Below, 2 binders whose answers are already recorded.
# Binder, Measurement
rows = [
    ("PGT-131 (antibody, V domains shown) VH: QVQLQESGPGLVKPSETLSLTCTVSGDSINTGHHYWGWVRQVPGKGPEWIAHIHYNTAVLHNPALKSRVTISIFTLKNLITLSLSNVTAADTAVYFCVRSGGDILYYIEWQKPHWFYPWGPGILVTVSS VL: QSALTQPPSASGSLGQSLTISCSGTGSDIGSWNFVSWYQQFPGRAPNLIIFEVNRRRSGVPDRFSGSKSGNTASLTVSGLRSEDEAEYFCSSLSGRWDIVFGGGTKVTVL", "> 50 µg/mL"),
    ("PGT-125 (antibody, V domains shown) VH: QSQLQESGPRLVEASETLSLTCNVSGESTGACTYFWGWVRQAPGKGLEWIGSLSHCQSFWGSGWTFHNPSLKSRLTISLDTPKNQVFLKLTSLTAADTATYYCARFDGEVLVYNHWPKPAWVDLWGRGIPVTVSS VL: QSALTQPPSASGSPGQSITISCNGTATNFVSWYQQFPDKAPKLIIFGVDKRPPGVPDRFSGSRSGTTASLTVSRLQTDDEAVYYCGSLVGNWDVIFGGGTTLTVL", "2.84 µg/mL"),
]

// next item, IC50 (neutralization) requested
input: Which IC50 (neutralization) value belongs to PGT-130 (antibody, V domains shown) VH: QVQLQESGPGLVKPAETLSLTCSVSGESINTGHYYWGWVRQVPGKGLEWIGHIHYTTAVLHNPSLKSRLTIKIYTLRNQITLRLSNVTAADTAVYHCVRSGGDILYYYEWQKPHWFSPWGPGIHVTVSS VL: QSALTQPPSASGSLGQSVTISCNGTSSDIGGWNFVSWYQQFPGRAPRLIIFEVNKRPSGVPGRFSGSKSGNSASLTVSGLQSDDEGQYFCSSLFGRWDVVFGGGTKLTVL ?
output: > 50 µg/mL
